# System: U-937
# measurement_notes: COMPOUND A In Vitro Assay
# Assay type: cell-based
# assay_context: Homo sapiens, Pleura, TP53 Mutant
value_kind: IC50 (µM)
Answer in µM, number only, no unit symbol.

Query :: // lookup IC50 | system=U-937 | key= CCOc1cc(C(C)(C)C)ccc1C1=N[C@@](C)(c2ccc(Cl)cc2)[C@@](C)(c2ccc(Cl)cc2)N1C(=O)N1CCN(CCCS(C)(=O)=O)CC1 [COMPOUND A]
Result :: 5.2

----------
# Test system: SK-N-DZ
# measurement_notes: COMPOUND A In Vitro Assay
# Type: cell-based
# assay_context: Homo sapiens, Brain, TP53 Mutant
value_kind: pIC50
Would you please state pIC50, meaning minus log10 of the concentration in mol/L, as a bare number?

Query :: Which pIC50 value belongs to CCOc1cc(C(C)(C)C)ccc1C1=N[C@@](C)(c2ccc(Cl)cc2)[C@@](C)(c2ccc(Cl)cc2)N1C(=O)N1CCN(CCCS(C)(=O)=O)CC1 ?
Result :: 5.24

----------
# Test system: NCI-H292
# measurement_notes: COMPOUND A In Vitro Assay
# Type: cell-based
# assay_context: Homo sapiens, Lung, TP53 Wild type
value_kind: IC50 (nM)
Answer in nM, number only, no unit symbol.

Query :: Which IC50 value belongs to CCOc1cc(C(C)(C)C)ccc1C1=N[C@@](C)(c2ccc(Cl)cc2)[C@@](C)(c2ccc(Cl)cc2)N1C(=O)N1CCN(CCCS(C)(=O)=O)CC1 [COMPOUND A] ?
Result :: 1600

----------
# System: KYSE-520
# measurement_notes: COMPOUND A In Vitro Assay
# Assay type: cell-based
# assay_context: Homo sapiens, Esophagus, TP53 Mutant
value_kind: pIC50
Would you please state pIC50, meaning minus log10 of the concentration in mol/L, as a bare number?

Query :: Which pIC50 value belongs to CCOc1cc(C(C)(C)C)ccc1C1=N[C@@](C)(c2ccc(Cl)cc2)[C@@](C)(c2ccc(Cl)cc2)N1C(=O)N1CCN(CCCS(C)(=O)=O)CC1 ?
Result :: 5.00

----------
# Test system: PC-13
# measurement_notes: COMPOUND A In Vitro Assay
# Format: cell-based
# assay_context: Homo sapiens, Lung, TP53 Mutant
value_kind: IC50 (µM)
Answer in µM, number only, no unit symbol.

Query :: // lookup IC50 | system=PC-13 | key= CCOc1cc(C(C)(C)C)ccc1C1=N[C@@](C)(c2ccc(Cl)cc2)[C@@](C)(c2ccc(Cl)cc2)N1C(=O)N1CCN(CCCS(C)(=O)=O)CC1 [COMPOUND A]
Result :: 14

----------
# Test system: LNCaP clone FGC
# measurement_notes: COMPOUND A In Vitro Assay
# Assay type: cell-based
# assay_context: Homo sapiens, LNCaP clone FGC cells
value_kind: IC50 (nM)
Answer in nM, number only, no unit symbol.

Query :: Which IC50 value belongs to CCOc1cc(C(C)(C)C)ccc1C1=N[C@@](C)(c2ccc(Cl)cc2)[C@@](C)(c2ccc(Cl)cc2)N1C(=O)N1CCN(CCCS(C)(=O)=O)CC1 ?
Result :: 200

----------
# Tested on: Calu-1
# measurement_notes: COMPOUND A In Vitro Assay
# Type: cell-based
# assay_context: Homo sapiens, Lung, TP53 Wild type
value_kind: pIC50
Would you please state pIC50, meaning minus log10 of the concentration in mol/L, as a bare number?

Query :: Which pIC50 value belongs to CCOc1cc(C(C)(C)C)ccc1C1=N[C@@](C)(c2ccc(Cl)cc2)[C@@](C)(c2ccc(Cl)cc2)N1C(=O)N1CCN(CCCS(C)(=O)=O)CC1 ?
Result :: 4.85

----------
# Tested on: LoVo
# measurement_notes: COMPOUND A In Vitro Assay
# Type: cell-based
# assay_context: Homo sapiens, Intestine, large, colon, TP53 Wild type
value_kind: pIC50
Would you please state pIC50, meaning minus log10 of the concentration in mol/L, as a bare number?

Query :: Which pIC50 value belongs to CCOc1cc(C(C)(C)C)ccc1C1=N[C@@](C)(c2ccc(Cl)cc2)[C@@](C)(c2ccc(Cl)cc2)N1C(=O)N1CCN(CCCS(C)(=O)=O)CC1 [COMPOUND A] ?
Result :: 5.89

----------
# System: BT-483
# measurement_notes: COMPOUND A In Vitro Assay
# Type: cell-based
# assay_context: Homo sapiens, Breast, mammary gland, TP53 Mutant
# Description: To generate an MDM2 antagonist therapy predictive signature, the response of MDM2 antagonist therapy in vitro with gene expression profiling (FIG. 1) is combined. […] The mutational status of nucleic acids from each cell line is determined by exome sequencing. […]
value_kind: IC50 (µM)
Answer in µM, number only, no unit symbol.

Query :: Which IC50 value belongs to CCOc1cc(C(C)(C)C)ccc1C1=N[C@@](C)(c2ccc(Cl)cc2)[C@@](C)(c2ccc(Cl)cc2)N1C(=O)N1CCN(CCCS(C)(=O)=O)CC1 ?
Result :: 20

----------
# Test system: HCC366
# measurement_notes: COMPOUND A In Vitro Assay
# Type: cell-based
# assay_context: Homo sapiens, Lung, TP53 Mutant
value_kind: pIC50
Would you please state pIC50, meaning minus log10 of the concentration in mol/L, as a bare number?

Query :: Which pIC50 value belongs to CCOc1cc(C(C)(C)C)ccc1C1=N[C@@](C)(c2ccc(Cl)cc2)[C@@](C)(c2ccc(Cl)cc2)N1C(=O)N1CCN(CCCS(C)(=O)=O)CC1 ?
Result :: 5.06

----------
# Tested on: NUGC-4
# measurement_notes: COMPOUND A In Vitro Assay
# Format: cell-based
# assay_context: Homo sapiens, NUGC-4, NUGC-4 cells
# Description: To generate an MDM2 antagonist therapy predictive signature, the response of MDM2 antagonist therapy in vitro with gene expression profiling (FIG. 1) is combined. […] The mutational status of nucleic acids from each cell line is determined by exome sequencing. […]
value_kind: IC50 (µM)
Answer in µM, number only, no unit symbol.

Query :: Which IC50 value belongs to CCOc1cc(C(C)(C)C)ccc1C1=N[C@@](C)(c2ccc(Cl)cc2)[C@@](C)(c2ccc(Cl)cc2)N1C(=O)N1CCN(CCCS(C)(=O)=O)CC1 ?
Result :: 0.4

----------
# Tested on: MDA-MB-157
# measurement_notes: COMPOUND A In Vitro Assay
# Format: cell-based
# assay_context: Homo sapiens, Breast, mammary gland, TP53 Mutant
value_kind: pIC50
Would you please state pIC50, meaning minus log10 of the concentration in mol/L, as a bare number?

Query :: Which pIC50 value belongs to CCOc1cc(C(C)(C)C)ccc1C1=N[C@@](C)(c2ccc(Cl)cc2)[C@@](C)(c2ccc(Cl)cc2)N1C(=O)N1CCN(CCCS(C)(=O)=O)CC1 ?
Result :: 4.70

----------
# Test system: SNU-16
# measurement_notes: COMPOUND A In Vitro Assay
# Type: cell-based
# assay_context: Homo sapiens, Stomach, TP53 Mutant
value_kind: pIC50
Would you please state pIC50, meaning minus log10 of the concentration in mol/L, as a bare number?

Query :: Which pIC50 value belongs to CCOc1cc(C(C)(C)C)ccc1C1=N[C@@](C)(c2ccc(Cl)cc2)[C@@](C)(c2ccc(Cl)cc2)N1C(=O)N1CCN(CCCS(C)(=O)=O)CC1 ?
Result :: 5.00

----------
# Tested on: UM-UC-3
# measurement_notes: COMPOUND A In Vitro Assay
# Type: cell-based
# assay_context: Homo sapiens, UMUC3, Urinary, bladder, TP53 Mutant
value_kind: IC50 (µM)
Answer in µM, number only, no unit symbol.

Query :: Which IC50 value belongs to CCOc1cc(C(C)(C)C)ccc1C1=N[C@@](C)(c2ccc(Cl)cc2)[C@@](C)(c2ccc(Cl)cc2)N1C(=O)N1CCN(CCCS(C)(=O)=O)CC1 ?
Result :: 15

----------
# System: COLO 205
# measurement_notes: COMPOUND A In Vitro Assay
# Type: cell-based
# assay_context: Homo sapiens, Intestine, large, colon, TP53 Mutant
value_kind: IC50 (µM)
Answer in µM, number only, no unit symbol.

Query :: Which IC50 value belongs to CCOc1cc(C(C)(C)C)ccc1C1=N[C@@](C)(c2ccc(Cl)cc2)[C@@](C)(c2ccc(Cl)cc2)N1C(=O)N1CCN(CCCS(C)(=O)=O)CC1 [COMPOUND A] ?
Result :: 9.1

----------
# Test system: NCI-H1793
# measurement_notes: COMPOUND A In Vitro Assay
# Format: cell-based
# assay_context: Homo sapiens, Lung, TP53 Mutant
value_kind: IC50 (µM)
Answer in µM, number only, no unit symbol.

Query :: Which IC50 value belongs to CCOc1cc(C(C)(C)C)ccc1C1=N[C@@](C)(c2ccc(Cl)cc2)[C@@](C)(c2ccc(Cl)cc2)N1C(=O)N1CCN(CCCS(C)(=O)=O)CC1 [COMPOUND A] ?
Result :: 10
